- measuredTarget: CDK9/CycT1 (Homo sapiens)
- Construct: Recombinant full-length His-tagged human CDK9 and CycT1; His; purchased Invitrogen PV4131; host or cells: insect cells
- Sequence (P50750 whole entry): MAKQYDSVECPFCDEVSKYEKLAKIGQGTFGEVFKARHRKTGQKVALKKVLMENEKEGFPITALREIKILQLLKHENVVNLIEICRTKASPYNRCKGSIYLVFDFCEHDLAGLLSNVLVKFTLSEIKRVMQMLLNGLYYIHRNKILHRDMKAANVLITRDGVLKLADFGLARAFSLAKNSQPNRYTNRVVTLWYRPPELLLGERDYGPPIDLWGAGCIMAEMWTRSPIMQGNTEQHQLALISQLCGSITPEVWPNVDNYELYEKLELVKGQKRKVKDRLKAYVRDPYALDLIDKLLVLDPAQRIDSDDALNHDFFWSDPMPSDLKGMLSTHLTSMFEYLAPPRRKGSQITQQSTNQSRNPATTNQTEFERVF
- Sequence (O60563 whole entry partner): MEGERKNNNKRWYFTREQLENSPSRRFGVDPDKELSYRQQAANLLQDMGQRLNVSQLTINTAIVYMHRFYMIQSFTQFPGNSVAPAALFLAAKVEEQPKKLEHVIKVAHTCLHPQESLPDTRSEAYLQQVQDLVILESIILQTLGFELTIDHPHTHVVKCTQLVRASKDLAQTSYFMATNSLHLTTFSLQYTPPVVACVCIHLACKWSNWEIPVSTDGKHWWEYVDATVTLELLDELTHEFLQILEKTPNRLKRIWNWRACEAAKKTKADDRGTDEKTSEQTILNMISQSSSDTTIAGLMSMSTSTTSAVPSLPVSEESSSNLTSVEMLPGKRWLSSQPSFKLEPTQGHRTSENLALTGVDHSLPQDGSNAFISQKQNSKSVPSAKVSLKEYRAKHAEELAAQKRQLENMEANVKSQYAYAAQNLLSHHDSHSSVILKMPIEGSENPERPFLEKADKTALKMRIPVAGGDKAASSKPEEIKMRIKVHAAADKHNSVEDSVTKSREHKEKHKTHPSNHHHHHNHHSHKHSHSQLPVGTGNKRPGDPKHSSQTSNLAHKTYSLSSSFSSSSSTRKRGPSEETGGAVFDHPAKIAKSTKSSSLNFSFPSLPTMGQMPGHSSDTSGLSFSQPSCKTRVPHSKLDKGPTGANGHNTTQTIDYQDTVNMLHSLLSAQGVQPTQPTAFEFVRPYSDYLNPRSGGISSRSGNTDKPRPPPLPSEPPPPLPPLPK
- methodNotes: CDK9/CycT1 high ATP kinase assay (Method 1b, TR-FRET, 2 mM ATP)
- Format: biochemical
- measurementParameters: Methods 1b and 2b; minimal values
Each record's class is read off its Selectivity high ATP CDK9 over high ATP CDK2: IC50 (high ATP CDK2)/IC50 (high ATP CDK9) using these ranges: lower (below 200), middle (200 to below 500), upper (500 or more)

Examples from the recorded data:
{"compound": "CS(=N)(=N)Cc1cc2cc(c1)OCCCCOc1c(ccc(F)c1F)-c1nc(ncc1F)N2", "measuredTarget": "CDK9/CycT1 (Homo sapiens)", "className": "upper"}
{"compound": "CS(=N)(=N)Cc1cc2nc(c1C#N)OCCCOc1cc(F)ccc1-c1cc(ncc1F)N2", "measuredTarget": "CDK9/CycT1 (Homo sapiens)", "className": "middle"}
{"compound": "CN=S(C)(=N)Cc1cc2nc(c1)OCCCOc1cc(F)ccc1-c1cc(ncc1F)N2 (racemic)", "measuredTarget": "CDK9/CycT1 (Homo sapiens)", "className": "lower"}
{"compound": "CS(=N)(Cc1cc2nc(c1)OCCCOc1cc(F)ccc1-c1cc(ncc1F)N2)=NC#N (racemic)", "measuredTarget": "CDK9/CycT1 (Homo sapiens)", "className": "lower"}
{"compound": "CS(=N)(Cc1cc2cc(c1)OCCCCOc1cc(F)ccc1-c1nc(ncc1F)N2)=NC1CC1 (racemic)", "measuredTarget": "CDK9/CycT1 (Homo sapiens)", "className": "middle"}

From here, focus on the item given below.
Please indicate the class for CS(=N)(=N)Cc1cc2nc(c1)OCCCOc1cc(F)ccc1-c1cc(ncc1F)N2 based on its Selectivity high ATP CDK9 over high ATP CDK2: IC50 (high ATP CDK2)/IC50 (high ATP CDK9).
lower
